// data source = paper PMC6831621

# Substrate: CC(=O)N[C@H]1[C@H](Oc2ccc3c(C)cc(=O)oc3c2)O[C@H](CO)[C@@H](O[C@@H]2O[C@H](CO)[C@@H](O)[C@H](O)[C@H]2NC(C)=O)[C@@H]1O
# test-summary: fluorogenic substrate hydrolysis, Michaelis-Menten non-linear fit
# Assay type: biochemical, Pseudoalteromonas aurantia
# setup-conditions: McIlvaine's buffer pH 5.0, substrate 0.01-0.6 mM, temperature not given for kinetics
With a cut-off of 90 µM, any Km strictly below it is called T; any Km meeting it or above is called F.

Does the reported Km of Chi23 (Pseudoalteromonas aurantia; Q157A) (protein, pET22b NdeI/XhoI, His-tagged (C-terminal by primer design), E. coli BL21(DE3); monomer; forward primer encodes MSKTITYYNS, reverse primer encodes AQSLNS at the C-terminus) MSKTITYYNSGAVPLINASELPYDVVNLAFLSSSSNNPFNLVLSGAIAATESSFTTNTIEAIKVMQHKGQKVLISFGGGTMGSNAYRSLSEDTAKLADSLASFVKNNQLDGVDIDYEDTAAFTGQAGYDGAQFLISLTQELRKRLPSPDYIISHAPAPPYLEQGGYMAGYVEVVELVGQEIDWLNVQFYNNPPWSANPDQIVSSYLNYTKLPNMSPEKVIAGFPVTQNDAGSGYMPVQTIINEVIKPIQQQSSLGGIMNWQFSSDHNGDWIKAIAQSLNS stay below 90 µM?
F

Does the reported Km of Chi23 (Pseudoalteromonas aurantia; N190A) (protein, pET22b NdeI/XhoI, His-tagged (C-terminal by primer design), E. coli BL21(DE3); monomer; forward primer encodes MSKTITYYNS, reverse primer encodes AQSLNS at the C-terminus) MSKTITYYNSGAVPLINASELPYDVVNLAFLSSSSNNPFNLVLSGAIAATESSFTTNTIEAIKVMQHKGQKVLISFGGGTMGSNAYRSLSEDTAKLADSLASFVKNNQLDGVDIDYEDTAAFTGQAGYDGAQFLISLTQELRKRLPSPDYIISHAPQPPYLEQGGYMAGYVEVVELVGQEIDWLNVQFYANPPWSANPDQIVSSYLNYTKLPNMSPEKVIAGFPVTQNDAGSGYMPVQTIINEVIKPIQQQSSLGGIMNWQFSSDHNGDWIKAIAQSLNS stay below 90 µM?
T

Does the reported Km of Chi23 (Pseudoalteromonas aurantia) (protein, pET22b NdeI/XhoI, His-tagged (C-terminal by primer design), E. coli BL21(DE3); monomer; forward primer encodes MSKTITYYNS, reverse primer encodes AQSLNS at the C-terminus) MSKTITYYNSGAVPLINASELPYDVVNLAFLSSSSNNPFNLVLSGAIAATESSFTTNTIEAIKVMQHKGQKVLISFGGGTMGSNAYRSLSEDTAKLADSLASFVKNNQLDGVDIDYEDTAAFTGQAGYDGAQFLISLTQELRKRLPSPDYIISHAPQPPYLEQGGYMAGYVEVVELVGQEIDWLNVQFYNNPPWSANPDQIVSSYLNYTKLPNMSPEKVIAGFPVTQNDAGSGYMPVQTIINEVIKPIQQQSSLGGIMNWQFSSDHNGDWIKAIAQSLNS stay below 90 µM?
T

Does the reported Km of Chi23 (Pseudoalteromonas aurantia; T80A) (protein, pET22b NdeI/XhoI, His-tagged (C-terminal by primer design), E. coli BL21(DE3); monomer; forward primer encodes MSKTITYYNS, reverse primer encodes AQSLNS at the C-terminus) MSKTITYYNSGAVPLINASELPYDVVNLAFLSSSSNNPFNLVLSGAIAATESSFTTNTIEAIKVMQHKGQKVLISFGGGAMGSNAYRSLSEDTAKLADSLASFVKNNQLDGVDIDYEDTAAFTGQAGYDGAQFLISLTQELRKRLPSPDYIISHAPQPPYLEQGGYMAGYVEVVELVGQEIDWLNVQFYNNPPWSANPDQIVSSYLNYTKLPNMSPEKVIAGFPVTQNDAGSGYMPVQTIINEVIKPIQQQSSLGGIMNWQFSSDHNGDWIKAIAQSLNS stay below 90 µM?
T
